System: MV4-11 xenografts
Assay: In vivo efficacy in MV4-11 subcutaneous xenograft model
Conditions: 100 mg/kg BID, 11 days, tumors dissected at end
# note: boundary value 0.07 g maps to 0 (no); Tumor Weight below it maps to 1 (yes)

# TODO verify Tumor Weight < 0.07 g strictly for this molecule: CON=C(C)C(=O)N1CC2(CC(Nc3cc(C(=O)NC[C@H](O)CN4CCc5ccccc5C4)ncn3)C2)C1 [PR-10]
1 (yes)

Ok, now CON=C(C)C(=O)N1CCC2(CC1)CC(Nc1cc(C(=O)NC[C@H](O)CN3CCc4ccccc4C3)ncn1)C2 [PR-13]
1 (yes)

Ok, now CC(=O)N1CCC(Nc2cc(C(=O)NC[C@H](O)CN3CCc4ccccc4C3)ncn2)CC1 [GSK3326595, reference compound]
0 (no)

Ok, now CON=C(C)C(=O)N1CCC(Nc2cc(C(=O)NC[C@H](O)CN3CCc4ccccc4C3)ncn2)CC1 [PR-4]
1 (yes)

Provenance of the data: patent US12522584B2
